target: HLA-B*08:01; assay: IEDB peptide-MHC binding, purified MHC/competitive/radioactivity; filed as Kd, often an IC50 or EC50 that approximates it; bounds were set here for any values at or beyond the usual limits of such assays; details: source organism: Dengue virus 1 Brazil/97-11/1997
Property: pKd
The scale used: pKd is minus the common logarithm of the concentration in molar units.

The examples below pair each entry with its known result.
Lookup: Entry FRRLTSREVL has what pKd?
Found: 6.98

Lookup: Entry MLKRARNRV has what pKd?
Found: 7.60

Lookup: Entry TAIANQAAIL has what pKd?
Found: 6.37

// next item, pKd requested
Lookup: Entry ILLMLVTPSM has what pKd?
Found: 6.80

* * *

biological target: HLA-A*24:03; experiment: IEDB peptide-MHC binding, purified MHC/direct/fluorescence; filed as Kd, often an IC50 or EC50 that approximates it; bounds were set here for any values at or beyond the usual limits of such assays; conditions: source organism: Burkholderia mallei ATCC 23344
pKd: −log10 of the molar value.
Property: pKd

Lookup: Entry MSADNAGAL has what pKd?
Found: ≤ 4.70

* * *

biological target: HLA-A*03:01; test: IEDB peptide-MHC binding, purified MHC/competitive/fluorescence; filed as Kd, often an IC50 or EC50 that approximates it; bounds were set here for any values at or beyond the usual limits of such assays; conditions: source organism: Orthohantavirus tulaense
Property: pKd
The scale used: pKd is minus the common logarithm of the concentration in molar units.

Lookup: Entry FMSRKLHRY has what pKd?
Found: 5.10

* * *

biological target: HLA-A*01:01; experiment: IEDB peptide-MHC binding, purified MHC/direct/fluorescence; filed as Kd, often an IC50 or EC50 that approximates it; bounds were set here for any values at or beyond the usual limits of such assays; settings: source organism: Giardia intestinalis
Property: Kd

Lookup: Entry GPRRAAWRI has what Kd?
Found: ≥ 20 µM

* * *

target: HLA-A*02:01; test: IEDB peptide-MHC binding, purified MHC/direct/fluorescence; filed as Kd, often an IC50 or EC50 that approximates it; bounds were set here for any values at or beyond the usual limits of such assays; details: source organism: Mammarenavirus juninense
pKd: −log10 of the molar value.
Property: pKd

Lookup: Entry ASSEPHCAL has what pKd?
Found: ≤ 4.70

* * *

target: HLA-A*29:02; test: IEDB peptide-MHC binding, purified MHC/direct/fluorescence; filed as Kd, often an IC50 or EC50 that approximates it; bounds were set here for any values at or beyond the usual limits of such assays; details: source organism: Choclo virus
Property: Kd

Lookup: Give HLA-A*29:02 Kd for FVKDWMDRI
Found: ≥ 20 µM

* * *

Each entry below carries its reported Kd.
molecular target: HLA-B*15:17; experiment: IEDB peptide-MHC binding, purified MHC/competitive/fluorescence; filed as Kd, often an IC50 or EC50 that approximates it; bounds were set here for any values at or beyond the usual limits of such assays; details: source organism: Francisella tularensis subsp. tularensis FSC198

Lookup: Entry IYTVIYYIF has what Kd?
Found: 439 nM

Others:
Lookup: Entry FQVNRFTGY has what Kd?
Found: ≥ 20000 nM

* * *

biological target: HLA-A*31:01; test: IEDB peptide-MHC binding, purified MHC/direct/fluorescence; filed as Kd, often an IC50 or EC50 that approximates it; bounds were set here for any values at or beyond the usual limits of such assays; conditions: source organism: Aracatuba virus
Property: Kd

Lookup: Entry LLLLISLVY has what Kd?
Found: ≥ 20 µM
